- Tested on: Clostridium tetani
- test-name: microbe, parasite or virus in culture
- Assay type: cell-based
- condition-description: 24 h, read-out: Minimum Inhibitory Concentration, MIC, Microorganism 29, Clostridium tetani, 37° C.
property-label: MIC
Quick note: unit goes after the number.

Recorded results for 3 compounds are shown here.
INSERT INTO measurements (compound, property_label, test_value) VALUES
  ('Cc1c(-c2ccc(C(F)(F)F)cc2)[nH]c2c(-c3ccc(Cl)cc3Cl)c(C3CC3)nn2c1=O [Compound 21]', 'MIC', '30.2 µM'),
  ('CCc1nn2c(=O)cc(-c3ccc(C#N)cc3)[nH]c2c1-c1ccc(Cl)cc1Cl [Compound 5]', 'MIC', '50.3 µM'),
  ('O=c1[nH]c(-c2ccc(C(F)(F)F)cc2)nc2cc(Cl)ccc12 [Compound 14]', 'MIC', '160 µM');

Let us move to another entry and its MIC.
Lab book: MIC of Cc1nn2c(=O)cc(-c3ccc(C#N)cc3)[nH]c2c1-c1ccc(Cl)cc1Cl [Compound 10] noted as 60.3 µM
